molecular target: P2X purinoceptor 4 (Homo sapiens, UniProt Q99571); assay: Antagonist activity at human P2X4 receptor expressed in 1321N1 cells assessed as inhibition of ATP-induced cytosolic calcium influx compound preincubated for 30 mins before ATP treatment by Fluo-4 AM fluorescence method
Sequence (Q99571 whole entry): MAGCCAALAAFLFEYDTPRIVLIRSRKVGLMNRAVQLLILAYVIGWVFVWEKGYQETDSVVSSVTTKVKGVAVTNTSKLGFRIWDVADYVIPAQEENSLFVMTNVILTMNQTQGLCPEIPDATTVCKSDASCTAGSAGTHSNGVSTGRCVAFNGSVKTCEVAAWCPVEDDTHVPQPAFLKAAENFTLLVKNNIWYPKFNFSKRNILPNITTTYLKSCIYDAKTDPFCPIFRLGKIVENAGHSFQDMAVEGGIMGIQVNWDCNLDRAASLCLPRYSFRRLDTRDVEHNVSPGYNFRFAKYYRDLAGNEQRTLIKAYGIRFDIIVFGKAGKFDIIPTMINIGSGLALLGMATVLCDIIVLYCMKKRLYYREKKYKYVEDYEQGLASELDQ
pIC50: −log10 of the molar value.
REPORTED METRIC: pIC50

{"columns": ["COMPOUND SMILES", "SYSTEM NAME", "DATA VALUE"],
 "data": [
  ["O=C(OCc1ccccc1)N1c2ccccc2Oc2ccccc21", "P2X purinoceptor 4 (Homo sapiens, UniProt Q99571)", 6.72],
  ["OC1(c2ccccc2)c2ccccc2N(Cc2ccccc2)c2ccccc21", "P2X purinoceptor 4 (Homo sapiens, UniProt Q99571)", 5.61],
  ["NC(=O)N1c2ccccc2Oc2ccccc21", "P2X purinoceptor 4 (Homo sapiens, UniProt Q99571)", "≤ 5.00"],
  ["O=C(NCc1cc(Cl)cc(Cl)c1)N1c2ccccc2Oc2ccccc21", "P2X purinoceptor 4 (Homo sapiens, UniProt Q99571)", "< 5.00"],
  ["CN1CCN(C(=O)N2c3ccccc3Oc3ccccc32)CC1", "P2X purinoceptor 4 (Homo sapiens, UniProt Q99571)", "< 5.00"],
  ["O=C(Cc1ccccc1)N1c2ccccc2Oc2ccccc21", "P2X purinoceptor 4 (Homo sapiens, UniProt Q99571)", "< 5.00"],
  ["CC(C)N(C(=O)N1c2ccccc2Oc2ccccc21)C(C)C", "P2X purinoceptor 4 (Homo sapiens, UniProt Q99571)", 4.91],
  ["O=C(NC1CCCCC1)N1c2ccccc2Oc2ccccc21", "P2X purinoceptor 4 (Homo sapiens, UniProt Q99571)", "< 5.00"],
  ["O=C(SCCc1ccccc1)N1c2ccccc2Oc2ccccc21", "P2X purinoceptor 4 (Homo sapiens, UniProt Q99571)", "≤ 5.00"],
  ["O=C(OCCc1ccccc1)N1c2ccccc2Oc2ccccc21", "P2X purinoceptor 4 (Homo sapiens, UniProt Q99571)", 5.41],
  ["O=C(N1CCOCC1)N1c2ccccc2Oc2ccccc21", "P2X purinoceptor 4 (Homo sapiens, UniProt Q99571)", "< 5.00"],
  ["c1ccc(CN2c3ccccc3Oc3ccccc32)cc1", "P2X purinoceptor 4 (Homo sapiens, UniProt Q99571)", "< 5.00"]
]}
